# Target System: T1, human CD71 extracellular domain (human, UniProt P02786 89-760)
# T1 construct: also called hCD71; CD71-ECD
# T1 sequence (P02786 89-760): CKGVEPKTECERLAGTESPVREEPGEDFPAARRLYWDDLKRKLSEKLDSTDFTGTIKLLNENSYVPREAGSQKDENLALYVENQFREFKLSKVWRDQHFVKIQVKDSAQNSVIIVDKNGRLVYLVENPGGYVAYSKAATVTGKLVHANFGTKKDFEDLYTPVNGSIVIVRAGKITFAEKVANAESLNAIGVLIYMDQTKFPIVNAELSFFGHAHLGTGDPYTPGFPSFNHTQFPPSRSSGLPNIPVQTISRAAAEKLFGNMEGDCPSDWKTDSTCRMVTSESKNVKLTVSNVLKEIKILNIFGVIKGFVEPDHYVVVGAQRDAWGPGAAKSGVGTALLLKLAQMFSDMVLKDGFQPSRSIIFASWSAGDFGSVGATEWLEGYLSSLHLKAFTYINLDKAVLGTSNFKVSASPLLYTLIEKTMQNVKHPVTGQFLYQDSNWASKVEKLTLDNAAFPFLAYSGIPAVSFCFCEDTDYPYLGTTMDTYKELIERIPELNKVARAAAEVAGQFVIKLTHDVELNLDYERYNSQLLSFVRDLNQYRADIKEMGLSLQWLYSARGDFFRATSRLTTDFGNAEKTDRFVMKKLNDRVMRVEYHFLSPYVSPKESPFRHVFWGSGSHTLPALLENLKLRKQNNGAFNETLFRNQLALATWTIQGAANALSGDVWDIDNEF
# Assay Summary: primary ELISA; note: test concentration or dose not given here
Observed Property: RLU (RLU)
Form entry: value (RLU) — number only.

1. CD71-binding FN3 domain SEQ ID NO 369 (designed binder) MLPAPKNLVVSRVTEDSARLSWTAPDAAFDSFFIGYLEPQPPGEAIVLWVPGSERSYDLTGLKPGTEYNVTIQGVKGGFPSHPLVAKSTT :: 3.82e+06
2. CD71-binding FN3 domain SEQ ID NO 420 (designed binder) MLPAPKNLVVSRVTEDSARLSWTAPDAAFDSFFIGYLEPQPPGEAIHLQVPGSERSYDLTGLKPGTEYNVTIHGVKGGIPSMPLSAKFTT :: 3.2e+06
3. CD71-binding FN3 domain SEQ ID NO 395 (designed binder) MLPAPKNLVVSRVTEDSARLSWTAPDTAFDSFFIGYLEPQPPGEAIGLFVPGSERSYDLTGLKPGTEYNVTIQGVKGGFPSDPLSAFFTT :: 5.11e+06

Pending binder:
In: Item CD71-binding FN3 domain SEQ ID NO 373 (designed binder) MLPAPKNLVVSRVTEDSARLSWTAPDAAFDSFFIGYLEPQPPGEAISLFVPGSERSYDLTGLKPGTEYNVTIQGVKGGFPSDPLVASFTT has what recorded RLU?
Out: 4.86e+06
